- System: IFNγ
- measurement_description: Cytokine assay: IFNγ release from PHA-L stimulated human PBMCs
- Type: cell-based
- condition_label: Homo sapiens, PBMC
- Description: Cytokine inhibitory activity is determined by measuring the effect of test agent on the release of the cytokines IL-4, IL-13 and IFNγ from human peripheral blood mononuclear cells (PBMCs) stimulated with the T-cell mitogen phytohemagglutinin-L (PHA-L). […]
observation_type: IC50 (nM)

(P) CCCOc1nc(-c2cccc(C3=CB(O)OC3)c2)ccc1OC [Example 155]
(Q) CCOc1c(OC)ccc(-c2cccc(C3COB(O)C3)n2)c1C#N (stereo not drawn) [Example 151]
Query :: Returns the identifier with the smallest measured IC50 among P and Q . Field: selected label. Fill in the label of the entry you choose.
Result :: Q
(Q: 3.48 nM, P: 5.64 nM)

---

- target_system: PDE4B (aa 152-484, Uniprot ID Q07343) (Homo sapiens (Human))
- Sequence (Q07343 324-656): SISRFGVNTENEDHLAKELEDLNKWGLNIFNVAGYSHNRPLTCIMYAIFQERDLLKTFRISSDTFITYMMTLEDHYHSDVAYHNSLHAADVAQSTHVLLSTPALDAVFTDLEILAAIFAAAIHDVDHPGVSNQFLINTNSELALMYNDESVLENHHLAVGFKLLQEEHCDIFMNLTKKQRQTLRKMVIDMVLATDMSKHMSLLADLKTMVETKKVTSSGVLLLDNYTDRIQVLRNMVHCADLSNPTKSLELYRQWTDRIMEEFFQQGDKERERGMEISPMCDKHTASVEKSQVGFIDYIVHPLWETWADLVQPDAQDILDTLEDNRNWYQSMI
- measurement_description: PDE4 SPA assay (scintillation proximity assay)
- Assay type: biochemical
- condition_label: read-out: PDE4B2 IC50
observation_type: IC50 (nM)

Worked set:
Query :: Give IC50 (PDE4B (aa 152-484, Uniprot ID Q07343) (Homo sapiens (Human))) of the following molecule: CCOc1cc(-c2cncc(C3COB(O)C3)c2C)ccc1OC (centres unmarked) [Example 53]
Result :: 1.41

Query :: Now consider CCCOc1cc(-c2cccc(C3COB(O)C3C)n2)ccc1OC (centres unmarked) [Example 27] .
Result :: 73.4

Query :: Now consider COc1ccc(-c2cncc(C3COB(O)C3)c2)cc1OC (single isomer, unassigned; enantiomer 2) [Example 221] .
Result :: 2.21

Query :: Now consider CCCOc1cc(-c2ccc(F)c(C3COB(O)C3)n2)ccc1OC (single isomer, unassigned; enantiomer 1) [Example 230] .
Result :: 17.1

Query :: Now consider COc1ccc(-c2cncc(C3COB(O)C3)c2)cc1OC(C)C (single isomer, unassigned) [Example 6] .
Result :: 1.05

Query :: Now consider CCOc1cc(-c2nc(C3COB(O)C3)ns2)ccc1OC (centres unmarked) [Example 72] .
Result :: 0.85

(P) COc1ccc(-c2cccc(C3COB(O)C3)c2)cc1OC1CCCC1 (centres unmarked) [Example 130]
(Q) COc1ccc(-c2cc(C)cc(C3COB(O)C3)c2)cc1OC (centres unmarked) [Example 207]
(R) CCCCCOc1cc(-c2cccc(C3COB(O)C3)c2)ccc1OC (centres unmarked) [Example 110]
(S) COc1ccc(-c2cncc(C3COB(O)C3)c2)cc1OC1CCSCC1 (centres unmarked) [Example 169]
Query :: List the 4 entries from lowest IC50 to highest IC50 value. Give the labels in the order specified.
Result :: R, P, S, Q
(R: 0.61 nM, P: 1.6 nM, S: 2.85 nM, Q: 10.3 nM)

(a) COc1ccc(-c2cc(C3COB(O)C3)ccn2)cc1OC1CCCC1 (centres unmarked) [Example 210]
(b) COc1ccc(-c2cncc(C3COB(O)C3)c2)cc1OC1CSC1 (centres unmarked) [Example 68]
Query :: Returns the identifier with the smallest measured IC50 among a and b . Field: selected label. Fill in the label of the entry you choose.
Result :: b

(a) COc1cc(-c2ccc(OC)c(OC3CCCC3)c2)nc(C2COB(O)C2)n1 (centres unmarked) [Example 175]
(b) CCCOc1cc(-c2cncc(C3COB(O)C3)c2)ccc1SC (centres unmarked) [Example 112]
(c) CCOc1cc(-c2cncc(C3COB(O)C3)c2C)c(F)cc1OC (single isomer, unassigned) [Example 143]
(d) CCCOc1cc(-c2nc(C3COB(O)C3)ns2)ccc1OC (centres unmarked) [Example 148]
(e) CCCOc1c(OC)ccc(-c2cccc(C3COB(O)C3)c2)c1C#N (centres unmarked) [Example 42]
Query :: List the 5 entries from lowest IC50 to highest IC50 value. Give the labels in the order specified.
Result :: d, e, b, c, a

(A) COc1cc(-c2ccc(OC)c(OC3CCCC3)c2)nc(C2COB(O)C2)n1 (single isomer, unassigned; enantiomer 2) [Example 176]
(B) CSc1ccc(-c2cncc(C3COB(O)C3)c2)cc1OC1CCCC1 (centres unmarked) [Example 99]
Query :: Returns the identifier with the smallest measured IC50 among A and B . Field: selected label. Fill in the label of the entry you choose.
Result :: B
(B: 1.37 nM, A: 5.51 nM)

(a) CCCOc1cc(-c2cncc(C3COB(O)C3)c2C)ccc1OC (centres unmarked) [Example 84]
(b) CCOc1cc(-c2cncc(C3COB(O)C3)c2)c(C)cc1OC (centres unmarked) [Example 69]
Query :: Returns the identifier with the smallest measured IC50 among a and b . Field: selected label. Fill in the label of the entry you choose.
Result :: a
(a: 1.24 nM, b: 4.39 nM)

(1) CCCOc1c(OC)ccc(-c2cncc(C3COB(O)C3)c2)c1OC (centres unmarked) [Example 167]
(2) CCOc1c(OC)ccc(-c2cncc(C3COB(O)C3)c2)c1F (single isomer, unassigned) [Example 74]
Query :: When their IC50 values are compared, which is larger, 1 or 2 ? Field: selected label. Fill in the label of the entry you choose.
Result :: 2
(2: 3.04 nM, 1: 1.98 nM)
